experiment: Stability in rat plasma assessed as half life; format: ADME, cell-free
Each item that follows carries a reported half-life.

Study these solved cases before continuing.
{"columns": ["compound", "half-life"],
 "data": [
  ["O=C(Oc1cccc(N2CCS(=O)(=O)CC2)c1)N1CCN(c2ccccc2)CC1", "> 1 h"],
  ["COc1ccc(N2CCN(C(=O)Oc3cccc(N4CCOCC4)c3)[C@H](C)C2)cc1", "> 1 h"],
  ["O=C(Oc1cccc(N2CCS(=O)(=O)CC2)c1)N1CCC(c2ccc(OCCF)cc2)CC1", "> 1 h"],
  ["CN1CCN(c2cccc(OC(=O)N3CCC(c4ccc(F)cc4)CC3)c2)CC1", "> 1 h"]
]}

Item under review: O=C(Oc1cccc(N2CCS(=O)(=O)CC2)c1)N1CCN(Cc2cccc(Oc3ccccc3)c2)CC1 . Reported half-life?
> 1 h

Item under review: CC1CN(c2ccccc2)CCN1C(=O)Oc1cccc(N2CCS(=O)(=O)CC2)c1 (stereo not given) . Reported half-life?
> 1 h
